biological target: recombinant mouse FAPα (rmFAPα) (Mus musculus); construct: purchased R&S system (so in the source); assay: FAPα enzymatic exopeptidase (dipeptidase) activity assay; format: biochemical; details: 1 μM test compound; Z-Gly-Pro-AMC substrate; read-out: rmFAPα (% exo inh @ 1 μM)
Sequence (P97321 whole entry): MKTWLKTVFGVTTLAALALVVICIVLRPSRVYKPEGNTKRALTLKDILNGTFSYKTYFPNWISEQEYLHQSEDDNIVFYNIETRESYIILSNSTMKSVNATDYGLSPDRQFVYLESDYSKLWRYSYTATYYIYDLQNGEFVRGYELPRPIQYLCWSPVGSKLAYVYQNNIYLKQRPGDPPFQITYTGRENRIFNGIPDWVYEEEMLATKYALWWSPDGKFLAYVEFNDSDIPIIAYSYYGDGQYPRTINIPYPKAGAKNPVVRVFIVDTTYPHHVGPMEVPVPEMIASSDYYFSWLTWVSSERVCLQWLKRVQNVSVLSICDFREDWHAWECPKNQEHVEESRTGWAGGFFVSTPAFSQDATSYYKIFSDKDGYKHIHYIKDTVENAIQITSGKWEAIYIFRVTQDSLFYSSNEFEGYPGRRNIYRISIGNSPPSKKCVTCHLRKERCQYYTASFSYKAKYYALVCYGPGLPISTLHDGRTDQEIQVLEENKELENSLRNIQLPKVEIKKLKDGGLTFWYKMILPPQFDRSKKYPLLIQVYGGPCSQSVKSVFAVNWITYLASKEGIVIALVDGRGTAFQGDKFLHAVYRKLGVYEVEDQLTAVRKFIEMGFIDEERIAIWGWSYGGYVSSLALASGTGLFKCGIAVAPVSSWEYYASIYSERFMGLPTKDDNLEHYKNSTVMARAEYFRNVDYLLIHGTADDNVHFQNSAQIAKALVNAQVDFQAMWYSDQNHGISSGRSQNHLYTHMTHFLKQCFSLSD
Give measured inhibition at 1 µM for each item. Keep answers brief.

N#C[C@@H]1CC(F)(F)CN1C(=O)CNC(=O)c1ncnc2c1CCC2: < 25%
Cn1cc(C(=O)NCC(=O)N2CC(F)(F)C[C@H]2C#N)c2ccccc2c1=O: > 50%
N#C[C@@H]1CC(F)(F)CN1C(=O)CNC(=O)c1c[nH]c(=O)c2ccccc12: > 50%
N#C[C@@H]1CC(F)(F)CN1C(=O)CNC(=O)c1ccc2ncccc2c1: > 50%
N#C[C@@H]1CC(F)(F)CN1C(=O)CNC(=O)c1ccc2nc(O)ccc2c1: 25 to 50%
N#C[C@@H]1CC(F)(F)CN1C(=O)CNC(=O)c1ccc(C(N)=O)cc1: 25 to 50%
N#C[C@@H]1CC(F)(F)CN1C(=O)CNC(=O)c1cn(-c2ccccc2)c(=O)c2ccccc12: 25 to 50%

Shift focus to the following entry.
Measured on recombinant mouse FAPα (rmFAPα) (Mus musculus), N#Cc1ccc(C(=O)NCC(=O)N2CC(F)(F)C[C@H]2C#N)cc1C(F)(F)F has a documented inhibition at 1 µM of 25 to 50%

* * *

Molecular target: recombinant human FAPα (rhFAPα) (Homo sapiens, UniProt Q12884)
Construct: purchased R&S system (so in the source)
Sequence (Q12884 1-760): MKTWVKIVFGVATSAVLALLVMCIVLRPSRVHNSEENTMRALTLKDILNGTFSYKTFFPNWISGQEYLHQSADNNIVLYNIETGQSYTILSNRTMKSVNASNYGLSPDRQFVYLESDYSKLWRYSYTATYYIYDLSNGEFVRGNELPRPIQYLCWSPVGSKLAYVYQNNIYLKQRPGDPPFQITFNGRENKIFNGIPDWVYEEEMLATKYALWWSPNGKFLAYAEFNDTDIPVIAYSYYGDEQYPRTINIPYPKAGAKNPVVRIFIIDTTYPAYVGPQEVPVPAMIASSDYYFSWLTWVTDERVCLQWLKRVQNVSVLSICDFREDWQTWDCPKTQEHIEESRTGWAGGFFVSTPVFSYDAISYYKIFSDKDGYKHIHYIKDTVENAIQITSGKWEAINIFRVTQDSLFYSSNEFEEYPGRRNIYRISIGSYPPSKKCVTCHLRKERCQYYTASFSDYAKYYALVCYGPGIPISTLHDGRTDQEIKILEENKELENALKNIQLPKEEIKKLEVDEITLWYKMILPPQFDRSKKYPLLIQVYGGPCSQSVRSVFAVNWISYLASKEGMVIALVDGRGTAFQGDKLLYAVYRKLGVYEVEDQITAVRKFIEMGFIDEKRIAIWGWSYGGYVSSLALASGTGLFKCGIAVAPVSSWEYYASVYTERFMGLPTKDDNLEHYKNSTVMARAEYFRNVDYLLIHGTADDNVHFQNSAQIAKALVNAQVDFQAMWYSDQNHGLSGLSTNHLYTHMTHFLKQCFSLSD
Assay: FAPα enzymatic exopeptidase (dipeptidase) activity assay
Format: biochemical
Settings: 1 μM test compound; Z-Gly-Pro-AMC substrate; read-out: rhFAPα (% exo inh @ 1 μM)
Consider the following compounds; for each one, report its inhibition at 1 µM.

N#C[C@@H]1CC(F)(F)CN1C(=O)CNC(=O)c1ccncc1-c1cc(Cl)ccc1F: > 50%
Cn1ccc2c(-c3cnccc3C(=O)NCC(=O)N3CC(F)(F)C[C@H]3C#N)cccc21: > 50%

For the next question, use this compound.
Reported inhibition at 1 µM ( N#C[C@@H]1CC(F)(F)CN1C(=O)CNC(=O)c1ccc2nccc(-c3ccccc3)c2c1 ) = > 50%

* * *

Give bioavailability for every item shown.
Assay: Intravenous and oral bioavailability in mice
Format: in vivo
Details: mouse, plasma, PO 10 mg/kg vs IV 2 mg/kg, read-out: F (bioavailability)
Method: The pharmacokinetic properties of exemplary test compounds were assayed after administration of an intravenous (IV) 2 mg/kg or oral (PO) 10 mg/kg single dose in mice. […] The plasma samples were analyzed by QTRAP 4500 triple quadrupole mass spectrometer (Applied Biosystems SCIEX) in positive or negative ion mode depending on the tested compound and interfaced with an ekspert ultraLC 100-XL UPLC System (eksigent) to determine the concentration of the exemplary test compound. […]
I'd appreciate it if you included the unit after the number.

For orientation, consider the following solved cases.
N#C[C@@H]1CC(F)(F)CN1C(=O)CNC(=O)c1c[nH]c(=O)cc1-c1ccc(F)cc1: 9%
N#C[C@@H]1CC(F)(F)CN1C(=O)CNC(=O)c1ccncc1-c1ccc(F)cc1: 30.3%
N#C[C@@H]1CC(F)(F)CN1C(=O)CNC(=O)c1ccncc1-c1ccccc1: 27.9%

For the 3 compounds below, give their bioavailability values.
1. N#C[C@@H]1CC(F)(F)CN1C(=O)CNC(=O)c1ccncc1C1CC1
2. N#C[C@@H]1CC(F)(F)CN1C(=O)CNC(=O)c1ccncc1Cc1ccccc1
3. N#C[C@@H]1CC(F)(F)CN1C(=O)CNC(=O)c1c[nH]c(=O)c2ccccc12

result:
["54%", "79.6%", "6.3%"]

* * *

target: recombinant human FAPα (rhFAPα) (Homo sapiens, UniProt Q12884); construct: purchased R&S system (so in the source); test: FAPα enzymatic exopeptidase (dipeptidase) activity assay; type: biochemical; conditions: Table 2; exopeptidase, Z-Gly-Pro-AMC; read-out: rhFAPα (exo IC50)
pIC50: −log10 of the molar value.
attribute-measured: pIC50

N#C[C@@H]1CC(F)(F)CN1C(=O)CNC(=O)c1ccncc1Nc1ccc(F)cc1 [Compound 114, 2,2,2-trifluoroacetate]: > 6.00

Field: pIC50. Fill in for each record below.
1. N#C[C@@H]1CC(F)(F)CN1C(=O)CNC(=O)c1ccncc1-c1cc(Cl)ccc1F [Compound 54]
2. N#C[C@@H]1CC(F)(F)CN1C(=O)CNC(=O)c1ccncc1-c1ccccc1 [Compound 13]
3. N#C[C@@H]1CC(F)(F)CN1C(=O)CNC(=O)c1c[nH]c(=O)c(-c2ccccc2)c1 [Compound 14]

result:
["> 6.00", "> 6.00", "> 6.00"]

State the recorded pIC50 for every item in the following list.
1. N#C[C@@H]1CC(F)(F)CN1C(=O)CNC(=O)c1ccncc1-c1ccc(F)cc1 [Compound 52]
2. Cn1cc(C(=O)NCC(=O)N2CC(F)(F)C[C@H]2C#N)c2ccccc2c1=O [Example 9]
3. CC(c1ccccc1)c1cnccc1C(=O)NCC(=O)N1CC(F)(F)C[C@H]1C#N (some centres unmarked) [Compound 123]

result:
> 6.00
> 6.00
> 6.00

* * *

biological target: recombinant human FAPα (rhFAPα) (Homo sapiens, UniProt Q12884); construct: purchased R&S system (so in the source); experiment: FAPα enzymatic exopeptidase (dipeptidase) activity assay; format: biochemical; settings: 1 μM test compound; Z-Gly-Pro-AMC substrate; read-out: rhFAPα (% exo inh @ 1 μM)
attribute-measured: inhibition at 1 µM

N#C[C@@H]1CC(F)(F)CN1C(=O)CNC(=O)c1c[nH]c(=O)cc1Cc1ccccc1: > 50%
N#C[C@@H]1CC(F)(F)CN1C(=O)CNC(=O)c1ccncc1Nc1ccnc2ccccc12: > 50%
N#C[C@@H]1CC(F)(F)CN1C(=O)CNC(=O)c1c[nH]c(=O)cc1-c1ccccc1: > 50%
N#C[C@@H]1CC(F)(F)CN1C(=O)CNC(=O)c1ccc(=O)n2c1CCCCC2: > 50%

Please look at the items below and tell me inhibition at 1 µM for each one, in order.
1. CC(c1ccccc1)c1cnccc1C(=O)NCC(=O)N1CC(F)(F)C[C@H]1C#N (stereo partly drawn)
2. N#C[C@@H]1CC(F)(F)CN1C(=O)CNC(=O)c1ccc(=O)[nH]c1-c1ccccc1
3. N#C[C@@H]1CC(F)(F)CN1C(=O)C1CC(NC(=O)c2c[nH]c(=O)c3ccccc23)C1 (stereo partly drawn)
4. N#C[C@@H]1CC(F)(F)CN1C(=O)CNC(=O)c1ccncc1Sc1ccccc1
5. N#C[C@@H]1CC(F)(F)CN1C(=O)CNC(=O)c1ccncc1CCc1ccccc1
6. CC(C)(C)c1cccc(-c2cnccc2C(=O)NCC(=O)N2CC(F)(F)C[C@H]2C#N)c1
7. Cc1ccc(-c2cnccc2C(=O)NCC(=O)N2CC(F)(F)C[C@H]2C#N)o1

result:
["> 50%", "< 25%", "< 25%", "> 50%", "> 50%", "> 50%", "> 50%"]

Hey, quick one: what's inhibition at 1 µM for each of these?
1. N#C[C@@H]1CC(F)(F)CN1C(=O)CNC(=O)c1coc(=O)c2ccccc12
2. N#C[C@@H]1CC(F)(F)CN1C(=O)CNC(=O)c1ccncc1N1CCC(N)CC1 [Compound 120, 2,2,2-trifluoroacetate]
3. N#C[C@@H]1CC(F)(F)CN1C(=O)CNC(=O)c1ccncc1C1=CCCCC1
4. N#C[C@@H]1CC(F)(F)CN1C(=O)C1(NC(=O)c2c[nH]c(=O)c3ccccc23)CC1

result:
> 50%
> 50%
> 50%
< 25%

Provide reported inhibition at 1 µM for each item, in the same order as listed.
1. Cc1ccccc1-c1cnccc1C(=O)NCC(=O)N1CC(F)(F)C[C@H]1C#N
2. Cn1nc(C(=O)NCC(=O)N2CC(F)(F)C[C@H]2C#N)c2ccccc2c1=O
3. N#C[C@@H]1CC(F)(F)CN1C(=O)CNC(=O)c1ccncc1Cc1ccccc1
4. N#C[C@@H]1CC(F)(F)CN1C(=O)CNC(=O)c1ccncc1-c1ccc2c(c1)CCN2
5. N#C[C@@H]1CC(F)(F)CN1C(=O)CNC(=O)c1ccncc1N1CCOCC1
6. COc1ccc(C(=O)NCC(=O)N2CC(F)(F)C[C@H]2C#N)c(-c2ccccc2)n1
7. N#Cc1ccc(C(=O)NCC(=O)N2CC(F)(F)C[C@H]2C#N)cc1F

result:
["> 50%", "< 25%", "> 50%", "> 50%", "> 50%", "25 to 50%", "25 to 50%"]

Value sought for every listed compound: inhibition at 1 µM.
1. N#C[C@@H]1CC(F)(F)CN1C(=O)CNC(=O)c1cc2ccncc2o1
2. N#C[C@@H]1CC(F)(F)CN1C(=O)CNC(=O)c1ccncc1Nc1cccnc1
3. N#C[C@@H]1CC(F)(F)CN1C(=O)CNC(=O)c1ccncc1Nc1ccc(F)cc1 [Compound 114, 2,2,2-trifluoroacetate]
4. C=Cc1cnccc1C(=O)NCC(=O)N1CC(F)(F)C[C@H]1C#N
5. N#C[C@@H]1CC(F)(F)CN1C(=O)CNC(=O)c1ccncc1/C=C/c1ccccc1
6. N#C[C@@H]1CC(F)(F)CN1C(=O)CNC(=O)c1ccncc1Oc1ccccc1
7. CCOc1cnccc1C(=O)NCC(=O)N1CC(F)(F)C[C@H]1C#N

result:
["25 to 50%", "> 50%", "> 50%", "> 50%", "> 50%", "> 50%", "> 50%"]

Numbers sourced from patent US11780821B2.
